- method notes: Heatmap growth inhibition assay, drug-resistant clinical isolates
- condition details: read-out: IC50 against clinical isolates
quantity: IC50

Query :: Recorded IC50 for O=C(Nc1ccc([N+](=O)[O-])cc1Cl)c1cc(Cl)ccc1O [Niclosamide] , please?
Result :: > 20 µM

----------
- Test system: E. coli 7KOΔtolC
- method notes: Cell sensitivity assay (growth, OD600)
- condition details: Escherichia coli, 4 h, read-out: IC50 for 7KOΔtolC
quantity: pIC50
Note on pIC50: it is the negative log10 of concentration, concentration in mol/L.

Query :: Recorded pIC50 for O=C(Nc1ccc([N+](=O)[O-])cc1Cl)c1cc(Cl)ccc1O [Niclosamide] , please?
Result :: 6.92
